test: Intrinsic clearance (Cli) in liver microsomes; assay type: in vitro ADME; conditions: female CD1 mouse liver microsomes, 0.5 μM compound
Outcome: condition met for Microsomal stability (intrinsic clearance) of at least 3 mL/min/g; condition not met for anything lower.

compound="Cc1ncsc1-c1ccc(CNC(=O)[C@@H]2C[C@@H](O)CN2C(=O)[C@@H](NC(=O)C2(F)CC2)C(C)(C)C)cc1 [Inhibitor 10]" class_assignment="condition not met"
compound="CC(=O)N[C@H](C(=O)N1C[C@H](O)C[C@H]1C(=O)NCc1ccc(-c2scnc2C)cc1)C(C)(C)C [Inhibitor 1]" class_assignment="condition not met"

(Q) Decide: Microsomal stability (intrinsic clearance) of Cc1ncsc1-c1ccc(CNC(=O)[C@@H]2C[C@@H](O)CN2C(=O)[C@@H](NC(=O)C2(C#N)CC2)C(C)(C)C)cc1 [Inhibitor 15] >= 3 mL/min/g?
(A) condition met

(Q) Decide: is the reported value of Microsomal stability (intrinsic clearance) for CC(=O)C1(C(=O)N[C@H](C(=O)N2C[C@H](O)C[C@H]2C(=O)NCc2ccc(-c3scnc3C)cc2)C(C)(C)C)CC1 [Inhibitor 16] equal to or greater than 3 mL/min/g?
(A) condition not met

====

biological target: VBC protein (VHL:ElonginB:ElonginC protein complex) (Homo sapiens, UniProt P40337); construct: made in house; assay type: binding; conditions: based on FP results, GE = ΔpKd/ΔHA (heavy atoms)
Readout Kind: GE (group efficiency)
Please respond with just the number, no unit label.

Please review the following examples before continuing.
compound="Cc1ncsc1-c1ccc(CNC(=O)[C@@H]2C[C@@H](O)CN2C(=O)[C@@H](N2CCCC2=O)C(C)(C)C)cc1 [Inhibitor 12]" reported_value=−0.48
compound="Cc1ncsc1-c1ccc(CNC(=O)[C@@H]2C[C@@H](O)CN2C(=O)[C@@H](NC(=O)CC(C)(C)C)C(C)(C)C)cc1 [Inhibitor 5]" reported_value=−0.12

Moving on to another compound below.
(Q) State its GE (group efficiency) for this compound: Cc1ncsc1-c1ccc(CNC(=O)[C@@H]2C[C@@H](O)CN2C(=O)[C@@H](NC(=O)C(C)(C)F)C(C)(C)C)cc1 [Inhibitor 9]
(A) −0.24

====

assay: Intracellular drug concentration (accumulation in HeLa cells); format: in vitro ADME, Human; details: human; HeLa cell lysate, equilibrium dialysis; read-out: Fraction unbound (fu)
Examples of compounds with documented fraction unbound follow.

compound=Cc1ncsc1-c1ccc(CNC(=O)[C@@H]2C[C@@H](O)CN2C(=O)[C@@H](NC(=O)C2(F)CC2)C(C)(C)C)cc1 reported_value=0.0002
compound=CC(=O)N[C@H](C(=O)N1C[C@H](O)C[C@H]1C(=O)NCc1ccc(-c2scnc2C)cc1)C(C)(C)C reported_value=0.0016

Continue with the compound presented below.
(Q) Give me measured fraction unbound, please, for this compound: COCCc1ccc(OCC(O)CNC(C)C)cc1 (stereo not drawn) [Metoprolol, reference compound]
(A) 0.005

====

molecular target: VBC protein (VHL:ElonginB:ElonginC protein complex) (Homo sapiens); construct: made in house; type: binding; settings: based on FP results, GE = ΔpKd/ΔHA (heavy atoms)
Readout Kind: GE (group efficiency)
A bare number is all that is needed in reply.

Example compounds with recorded GE (group efficiency):
cpd_smiles=Cc1ncsc1-c1ccc(CNC(=O)[C@@H]2C[C@@H](O)CN2C(=O)[C@@H](NC(=O)CO)C(C)(C)C)cc1 readout_kind="GE (group efficiency)" reported_value=−0.11
cpd_smiles=Cc1ncsc1-c1ccc(CNC(=O)[C@@H]2C[C@@H](O)CN2C(=O)[C@@H](NC(=O)C2CC2)C(C)(C)C)cc1 readout_kind="GE (group efficiency)" reported_value=−0.02

Let us examine a further case.
(Q) Check the records and state GE (group efficiency) for Cc1ncsc1-c1ccc(CNC(=O)[C@@H]2C[C@@H](O)CN2C(=O)[C@@H](NC(=O)C(F)(F)F)C(C)(C)C)cc1
(A) −0.08

====

system: HeLa cells; test: Intracellular drug concentration (accumulation in HeLa cells); type: in vitro ADME, Human; conditions: HeLa cells, 50 μM, 2 h
Property: Compound associated with cells; scope: individual molecules
Just the number in µM, nothing appended.

molecule=CC(=O)N[C@H](C(=O)N1C[C@H](O)C[C@H]1C(=O)NCc1ccc(-c2scnc2C)cc1)C(C)(C)C reported_value=463.8
molecule=Cc1ncsc1-c1ccc(CNC(=O)[C@@H]2C[C@@H](O)CN2C(=O)[C@@H](NC(=O)C2(C#N)CC2)C(C)(C)C)cc1 reported_value=150.0

(Q) Give the measured Compound associated with cells for CC(C)NCC(O)COc1cccc2ccccc12 (stereo not drawn) [propanolol, reference compound]
(A) 2679.0

(Q) State its Compound associated with cells: Cc1ncsc1-c1ccc(CNC(=O)[C@@H]2C[C@@H](O)CN2C(=O)[C@@H](NC(=O)C2(F)CC2)C(C)(C)C)cc1
(A) 383.6

(Q) State, in one line, measured Compound associated with cells of Cc1ncsc1-c1ccc(CNC(=O)[C@@H]2C[C@@H](O)CN2C(=O)[C@@H](NC(=O)C2CCC2)C(C)(C)C)cc1
(A) 204.0

(Q) Give Compound associated with cells for the following molecule: CC(=O)C1(C(=O)N[C@H](C(=O)N2C[C@H](O)C[C@H]2C(=O)NCc2ccc(-c3scnc3C)cc2)C(C)(C)C)CC1
(A) 100.0

====

Reported LLE values for a set of molecules
target: VBC complex (VHL:ElonginB:ElonginC) (Homo sapiens); construct: made in house; type: binding; details: LLE = pKd–Log D, on the basis of ITC results
Sequence (Q15369 17-112): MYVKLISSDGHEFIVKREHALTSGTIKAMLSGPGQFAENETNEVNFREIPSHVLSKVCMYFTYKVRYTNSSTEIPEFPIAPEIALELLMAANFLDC
Sequence (P40337 54-213): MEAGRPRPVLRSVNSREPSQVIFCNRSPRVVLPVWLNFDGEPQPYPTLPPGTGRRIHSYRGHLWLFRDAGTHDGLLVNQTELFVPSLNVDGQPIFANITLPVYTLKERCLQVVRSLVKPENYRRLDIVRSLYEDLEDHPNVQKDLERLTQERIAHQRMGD
Sequence (Q15370 1-104, further chain): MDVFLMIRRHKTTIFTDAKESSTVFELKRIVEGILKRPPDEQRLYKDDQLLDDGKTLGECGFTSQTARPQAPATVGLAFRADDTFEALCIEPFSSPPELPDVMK

Illustrative cases are given below, each with its answer.
cpd_smiles=CC(=O)C1(C(=O)N[C@H](C(=O)N2C[C@H](O)C[C@H]2C(=O)NCc2ccc(-c3scnc3C)cc2)C(C)(C)C)CC1 reported_value="5.63 kcal × mol^-1 × NHA^-1"
cpd_smiles=Cc1ncsc1-c1ccc(CNC(=O)[C@@H]2C[C@@H](O)CN2C(=O)[C@@H](NC(=O)C2CCC2)C(C)(C)C)cc1 reported_value="5.38 kcal × mol^-1 × NHA^-1"
cpd_smiles=CC(=O)NC1(C(=O)N[C@H](C(=O)N2C[C@H](O)C[C@H]2C(=O)NCc2ccc(-c3scnc3C)cc2)C(C)(C)C)CC1 reported_value="6.28 kcal × mol^-1 × NHA^-1"
cpd_smiles=Cc1ncsc1-c1ccc(CNC(=O)[C@@H]2C[C@@H](O)CN2C(=O)[C@@H](NC(=O)C2CC2)C(C)(C)C)cc1 reported_value="5.68 kcal × mol^-1 × NHA^-1"

Please find the next molecule below.
(Q) Identify measured LLE corresponding to Cc1ncsc1-c1ccc(CNC(=O)[C@@H]2C[C@@H](O)CN2C(=O)[C@@H](NC(=O)CO)C(C)(C)C)cc1
(A) 6.28 kcal × mol^-1 × NHA^-1

====

test: Parallel Artificial Membrane Permeability Assay (PAMPA); type: in vitro ADME; conditions: pH 7.4, as printed in text and footnote
Examples of molecules with documented Papp at 5 h, 10 μM follow.
Remember to put the unit after the number in your answer.

Illustrative cases are given below, each with its answer.
molecule="CC(=O)C1(C(=O)N[C@H](C(=O)N2C[C@H](O)C[C@H]2C(=O)NCc2ccc(-c3scnc3C)cc2)C(C)(C)C)CC1 [Inhibitor 16]" readout_kind="Papp at 5 h, 10 μM" reported_value="1.5 ×10⁻⁶ cm/s"
molecule="Cc1ncsc1-c1ccc(CNC(=O)[C@@H]2C[C@@H](O)CN2C(=O)[C@@H](NC(=O)C2(F)CC2)C(C)(C)C)cc1 [Inhibitor 10]" readout_kind="Papp at 5 h, 10 μM" reported_value="2.71 ×10⁻⁶ cm/s"

Pending molecule:
(Q) Identify Papp at 5 h, 10 μM associated with the molecule Cc1ncsc1-c1ccc(CNC(=O)[C@@H]2C[C@@H](O)CN2C(=O)[C@@H](NC(=O)C2(C#N)CC2)C(C)(C)C)cc1 [Inhibitor 15]
(A) 1.94 ×10⁻⁶ cm/s

====

target: VBC protein (VHL:ElonginB:ElonginC protein complex) (Homo sapiens, UniProt P40337); construct: made in house; type: binding; conditions: based on FP results, GE = ΔpKd/ΔHA (heavy atoms)
Readout Kind: GE (group efficiency)
Enter a number only.

compound="Cc1ncsc1-c1ccc(CNC(=O)[C@@H]2C[C@@H](O)CN2C(=O)[C@@H](NC(=O)OC(C)(C)C)C(C)(C)C)cc1 [Inhibitor 2]" target_or_test_system="VBC protein (VHL:ElonginB:ElonginC protein complex) (Homo sapiens, UniProt P40337)" reported_value=−0.41

Could you now look at the following compound, please?
(Q) Identify GE (group efficiency) associated with the compound Cc1ncsc1-c1ccc(CNC(=O)[C@@H]2C[C@@H](O)CN2C(=O)[C@@H](NC(=O)C(Cl)(Cl)Cl)C(C)(C)C)cc1 [Inhibitor 8]
(A) −0.04

====

Measured fraction unbound, listed per entry.
test: Intracellular drug concentration (accumulation in HeLa cells); format: in vitro ADME, Human; conditions: human; HeLa cell lysate, equilibrium dialysis; read-out: Fraction unbound (fu)

cpd_smiles=Cc1ncsc1-c1ccc(CNC(=O)[C@@H]2C[C@@H](O)CN2C(=O)[C@@H](NC(=O)C2(C#N)CC2)C(C)(C)C)cc1 reported_value=0.0007
cpd_smiles=Cc1ncsc1-c1ccc(CNC(=O)[C@@H]2C[C@@H](O)CN2C(=O)[C@@H](NC(=O)C2CCC2)C(C)(C)C)cc1 reported_value=0.0008

Consider the additional compound presented here.
(Q) Query fraction unbound for CC(=O)C1(C(=O)N[C@H](C(=O)N2C[C@H](O)C[C@H]2C(=O)NCc2ccc(-c3scnc3C)cc2)C(C)(C)C)CC1
(A) 0.0008
